experiment: Urinary excretion study in rats after oral NS, SF or CNS (LC–MS/MS); format: in vivo; conditions: rat urine, oral CNS 110 mg/kg, 12 h
measure: Excretion amount (µg)
Form entry: value (µg) — number only.

Take a look at these entries with their results.
CC(C)=CCC[C@](C)(O[C@@H]1O[C@H](CO)[C@@H](O)[C@H](O)[C@H]1O)[C@H]1CC[C@]2(C)[C@@H]1[C@H](O)C[C@@H]1[C@@]3(C)CC[C@H](O[C@@H]4O[C@H](CO)[C@@H](O)[C@H](O)[C@H]4O[C@@H]4O[C@H](CO)[C@@H](O)[C@H](O)[C@H]4O)C(C)(C)[C@@H]3CC[C@]12C [ginsenoside Rd]
0.019
CC(C)=CCC[C@](C)(O[C@@H]1O[C@H](CO)[C@@H](O)[C@H](O)[C@H]1O)[C@H]1CC[C@]2(C)[C@@H]1[C@H](O)C[C@@H]1[C@@]3(C)CC[C@H](O)C(C)(C)[C@@H]3[C@@H](O[C@@H]3O[C@H](CO)[C@@H](O)[C@H](O)[C@H]3O[C@@H]3O[C@@H](C)[C@H](O)[C@@H](O)[C@H]3O)C[C@]12C [ginsenoside Re]
0.035
CC(C)=CCC[C@](C)(O[C@@H]1O[C@H](CO)[C@@H](O)[C@H](O)[C@H]1O)[C@H]1CC[C@]2(C)[C@@H]1[C@H](O)C[C@@H]1[C@@]3(C)CC[C@H](O)C(C)(C)[C@@H]3[C@@H](O[C@@H]3O[C@H](CO)[C@@H](O)[C@H](O)[C@H]3O)C[C@]12C [ginsenoside Rg1]
0.805

Pending compound:
input: Quickly give me recorded Excretion amount for CC(C)=CCC[C@](C)(O[C@@H]1O[C@H](CO[C@@H]2O[C@H](CO)[C@@H](O)[C@H](O)[C@H]2O)[C@@H](O)[C@H](O)[C@H]1O)[C@H]1CC[C@]2(C)[C@@H]1[C@H](O)C[C@@H]1[C@@]3(C)CC[C@H](O[C@@H]4O[C@H](CO)[C@@H](O)[C@H](O)[C@H]4O[C@@H]4O[C@H](CO)[C@@H](O)[C@H](O)[C@H]4O)C(C)(C)[C@@H]3CC[C@]12C [ginsenoside Rb1]
output: 0.154

* * *

experiment: Fecal excretion study in rats after oral NS, SF or CNS (LC–MS/MS); format: in vivo; conditions: rat feces, oral NS 60 mg/kg, 8 h
Known Accumulative excretion percentage of a selection of molecules
Form entry: value (%) — number only.

Take a look at these entries with their results.
CC(C)=CCC[C@](C)(O[C@@H]1O[C@H](CO)[C@@H](O)[C@H](O)[C@H]1O)[C@H]1CC[C@]2(C)[C@@H]1[C@H](O)C[C@@H]1[C@@]3(C)CC[C@H](O)C(C)(C)[C@@H]3[C@@H](O[C@@H]3O[C@H](CO)[C@@H](O)[C@H](O)[C@H]3O[C@@H]3O[C@@H](C)[C@H](O)[C@@H](O)[C@H]3O)C[C@]12C [ginsenoside Re]
2.063
CC(C)=CCC[C@](C)(O[C@@H]1O[C@H](CO)[C@@H](O)[C@H](O)[C@H]1O)[C@H]1CC[C@]2(C)[C@@H]1[C@H](O)C[C@@H]1[C@@]3(C)CC[C@H](O)C(C)(C)[C@@H]3[C@@H](O[C@@H]3O[C@H](CO)[C@@H](O)[C@H](O)[C@H]3O)C[C@]12C [ginsenoside Rg1]
0.798
CC(C)=CCC[C@](C)(O[C@@H]1O[C@H](CO[C@@H]2O[C@H](CO)[C@@H](O)[C@H](O)[C@H]2O)[C@@H](O)[C@H](O)[C@H]1O)[C@H]1CC[C@]2(C)[C@@H]1[C@H](O)C[C@@H]1[C@@]3(C)CC[C@H](O[C@@H]4O[C@H](CO)[C@@H](O)[C@H](O)[C@H]4O[C@@H]4O[C@H](CO)[C@@H](O)[C@H](O)[C@H]4O)C(C)(C)[C@@H]3CC[C@]12C [ginsenoside Rb1]
0.624

Pending molecule:
input: Quickly give me recorded Accumulative excretion percentage for CC(C)=CCC[C@](C)(O[C@@H]1O[C@H](CO)[C@@H](O)[C@H](O)[C@H]1O)[C@H]1CC[C@]2(C)[C@@H]1[C@H](O)C[C@@H]1[C@@]3(C)CC[C@H](O[C@@H]4O[C@H](CO)[C@@H](O)[C@H](O)[C@H]4O[C@@H]4O[C@H](CO)[C@@H](O)[C@H](O)[C@H]4O)C(C)(C)[C@@H]3CC[C@]12C [ginsenoside Rd]
output: 2.244
